- System: Pseudomonas aeruginosa ATCC 27853
- Test Protocol: MIC by broth microdilution, P. aeruginosa reference strain
- Format: cell-based
- Run Parameters: ATCC 27853
In this section, each of the substances is paired with its reported MIC (ug/mL) P. aeruginosa.

# annotated cases, reported MIC (ug/mL) P. aeruginosa shown
>>> observed("H-VKKIRVRLSA-OH [ID5, H-V-KKIRVRLSA-OH]")
"512 µg/mL"
>>> observed("H-QIKIRVRLSA-OH [ID9, H-Q-I-KIRVRLSA-OH]")
">512 µg/mL"
>>> observed("H-WKKIRVRLSA-OH [ID6, H-W-KKIRVRLSA-OH]")
"128 µg/mL"
>>> observed("H-QYKIRVRLSA-OH [ID13, H-Q-Y-KIRVRLSA-OH]")
">512 µg/mL"
>>> observed("H-QLKIRVRLSA-OH [ID10, H-Q-L-KIRVRLSA-OH]")
"128 µg/mL"
>>> observed("H-QKKIRVRLSA-OH [ID1, H-QKKIRVRLSA-OH, reference compound]")
">512 µg/mL"
>>> observed("H-FKKIRVRLSA-OH [ID2, H-F-KKIRVRLSA-OH]")
"256 µg/mL"
>>> observed("H-LKKIRVRLSA-OH [ID4, H-L-KKIRVRLSA-OH]")
"256 µg/mL"
>>> observed("H-GQWKIRVRLSA-OH [ID14, H-G-Q-W-KIRVRLSA-OH]")
"64 µg/mL"
>>> observed("H-IKKIRVRLSA-OH [ID3, H-I-KKIRVRLSA-OH]")
"256 µg/mL"

Here is another substance to look at.
Q: Field request: MIC (ug/mL) P. aeruginosa | item: H-QVKIRVRLSA-OH [ID11, H-Q-V-KIRVRLSA-OH]
A: 256 µg/mL

---

- Test system: Staphylococcus aureus ATCC 25923
Measurement Type: MIC (ug/mL) S. aureus

>>> observed("H-LKKIRVRLSA-OH [ID4, H-L-KKIRVRLSA-OH]")
">512 µg/mL"

Q: Value lookup for MIC (ug/mL) S. aureus; key = H-QIKIRVRLSA-OH [ID9, H-Q-I-KIRVRLSA-OH]
A: >512 µg/mL

Q: Item: H-QYKIRVRLSA-OH [ID13, H-Q-Y-KIRVRLSA-OH]
A: >512 µg/mL

Q: Next substance: H-WKKIRVRLSA-OH [ID6, H-W-KKIRVRLSA-OH]
A: 512 µg/mL

Q: Okay, and H-QWKIRVRLSA-OH [ID12, H-Q-W-KIRVRLSA-OH] ?
A: >512 µg/mL

Q: Further, for H-VKKIRVRLSA-OH [ID5, H-V-KKIRVRLSA-OH] ?
A: 512 µg/mL

Q: Would you mind doing H-QFKIRVRLSA-OH [ID8, H-Q-F-KIRVRLSA-OH] as well?
A: >512 µg/mL

Q: # iterate: H-FKKIRVRLSA-OH [ID2, H-F-KKIRVRLSA-OH]
A: 512 µg/mL

Q: Also check H-QLKIRVRLSA-OH [ID10, H-Q-L-KIRVRLSA-OH]
A: >512 µg/mL

Q: // same read-out, input: H-YKKIRVRLSA-OH [ID7, H-Y-KKIRVRLSA-OH]
A: >512 µg/mL

Q: Same again, this time with H-QVKIRVRLSA-OH [ID11, H-Q-V-KIRVRLSA-OH]
A: >512 µg/mL

Q: One more substance: H-GQWKIRVRLSA-OH [ID14, H-G-Q-W-KIRVRLSA-OH]
A: >512 µg/mL

Q: Same question for H-IKKIRVRLSA-OH [ID3, H-I-KKIRVRLSA-OH] please.
A: 512 µg/mL

FYI, the data here is from patent US8785399B2.
